test: small-molecule microarray binders of probe aXIP, primary screen, biochemical, NeuroSMM set, 635/667 nm fluorescence (AID 1119); settings: higher = more signal, called active from +8 up or from −8 down;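 also: probe is the protein aXip251-270 applied at 1 µg/mL to compound-printed slides; binding of probe to printed compounds measured as 667 nm fluorescence plus signal to noise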
Cut-off 0.06 on composite Z-score, inclusive. At or above means true; below means false.

Below, 5 compounds whose answers are already recorded.
INPUT SMILES	ASSIGNED CLASS
COCC(=C=CC[C@H](O)c1ccc(OCCO)cc1)C[C@H](O)c1ccccn1	true
CC1=C([C@H](O)CCc2ccccc2)[C@H](CO)[C@@H]2C(=O)N(Cc3ccccc3)C(=O)[C@@H]2C1	true
CO[C@H]1COC(=O)[C@H](Cc2ccccc2)NC(=O)CC=C[C@@H](C)[C@H](OC)COC(=O)CC=C[C@@H]1C	false
C=CCOC(=O)[C@@H]1[C@H]2C(=O)O[C@H](c3ccccc3)[C@H](c3ccccc3)N2[C@H](c2ccc(OCCOC(=O)[C@H]3C[C@H]4C(=O)N[C@@H](CCCCNC(C)=O)C(=O)N4[C@H]3c3ccc(O)cc3)cc2)[C@@]12C(=O)Nc1ccc(I)cc12	true
CCCCCCc1nc(-c2cc(C)c(OC)c(C)c2)cc2c1[Si](C(C)C)(C(C)C)O[C@H]2c1ccccc1	false

[ask] Confirm if composite Z-score reported for the compound "O=C1c2ccccc2[C@@]2(Cc3ccccc3N(CC(F)(F)F)C2=O)[C@H](c2ccc(CO)cc2)N1C1CCCCC1" is 0.06 or above.
[reply] false

[ask] Confirm if composite Z-score reported for the compound "CCCC[C@@H]1C[C@H]1[C@@H](NC(=O)c1ccccc1)c1ccccc1C(F)(F)F" is 0.06 or above.
[reply] false

[ask] Confirm if composite Z-score reported for the compound "CCN1C(C)=C(C(=O)OC)[C@@H](c2ccccc2)N2C(=O)[C@@]3(C(=O)OC)O[C@@]12[C@@H]1C(=O)N(c2ccccc2)C(=O)[C@@H]13" is 0.06 or above.
[reply] false

[ask] Confirm if composite Z-score reported for the compound "[N-]=[N+]=NCc1ccccc1C[C@@]1(C(=O)N2CCOCC2)N=C(c2ccc(OCCCO)cc2)O[C@@H]1c1ccccc1N=[N+]=[N-]" is 0.06 or above.
[reply] false

[ask] Confirm if composite Z-score reported for the compound "COc1ccc([Si](C)(C)[C@@H]2[C@@H](CCO)O[C@]3(C(=O)N(Cc4ccccc4)c4ccccc43)[C@H]2C)cc1" is 0.06 or above.
[reply] true

[ask] Confirm if composite Z-score reported for the compound "CC(C)CN1C(=O)[C@@]2(Cc3ccccc31)c1ccccc1C(=O)N(C1CCCCC1)[C@H]2c1ccc(CO)cc1" is 0.06 or above.
[reply] true

[ask] Confirm if composite Z-score reported for the compound "COC(=O)C(CC#Cc1ccc2c(c1)[C@]1(C(=O)N2)[C@H](C(=O)N2CCCCCCC2)[C@H]2C(=O)O[C@H](c3ccccc3)[C@H](c3ccccc3)N2[C@@H]1c1ccc(O)cc1)C(=O)OC" is 0.06 or above.
[reply] true

[ask] Confirm if composite Z-score reported for the compound "COCCOC(=O)N1C(=O)[C@@]2(c3cc(C#CCNC(N)=O)ccc31)[C@H](c1ccc(OCCO)cc1)N1[C@H](c3ccccc3)[C@H](c3ccccc3)OC(=O)[C@H]1[C@@H]2C(=O)Nc1nc2ccccc2s1" is 0.06 or above.
[reply] false

Taken from PubChem BioAssay.
